Source listed as patent US20240150321A1.

# System: NF-kB reporter in Jurkat cells
# Experiment: NF-kB reporter assay in Jurkat cells stimulated with aCD3/aCD28/PMA
# Assay type: cell-based
# Measurement conditions: Homo sapiens; Jurkat cells, 1 hr compound pre-incubation, aCD3/aCD28/PMA stimulation 4 hr, One-Glo readout; read-out: NF-kB Reporter Assay IC50
compounds and their reported IC50

smi=Cn1ncc2cccc(NS(=O)(=O)c3cnn(-c4cc(C5(O)CC(F)(F)C5)ccn4)c3)c21 reading="< 400 nM"
smi=CCc1ccc2cnn(C)c2c1NS(=O)(=O)c1cnn(-c2cc(C(F)(F)F)ncn2)c1 reading="< 400 nM"
smi=Cn1ncc2cccc(NS(=O)(=O)c3cnn(-c4cc(C(F)(F)F)c(F)cn4)c3)c21 reading="< 400 nM"

Which measured IC50 value corresponds to CN1CC[C@H](n2cc(S(=O)(=O)Nc3cccc4cnn(C)c34)cn2)CC1=O ?
> 2500 nM

Another compound: COc1ncc2cnn(C)c2c1NS(=O)(=O)c1cnn(-c2cc(C(F)(F)F)nn2C)c1
> 2500 nM

Another compound: COc1ccc2cnn(C)c2c1NS(=O)(=O)c1cnn(-c2cc(N3CCOCC3)ccn2)c1
< 400 nM

Another compound: Cc1n[nH]c2cccc(NS(=O)(=O)c3cnn(-c4cc(C(F)(F)F)ccn4)c3)c12
< 400 nM

Another compound: CC(=O)N1CC(c2ccnc(-n3cc(S(=O)(=O)Nc4cccc5cnn(C)c45)cn3)c2)C1
> 2500 nM

Another compound: CCc1ccc2cnn(C)c2c1NS(=O)(=O)c1cnn(-c2ccnc(C)c2)c1
400 to 1000 nM
